System: rainbow trout
Experiment: In vivo bioconcentration experiment with a mixture of anionic surfactants, flow-through aquaria, 10 °C, pH 7.8
Details: kinetic BCF from measured concentrations in water; 95% credible interval in brackets
Method: The bioconcentration of a mixture of 10 anionic surfactants was measured in rainbow trout in water at pH 7.8. […] The experiment was conducted in flow-through aquaria with juvenile rainbow trout at 10 °C. Ethical approval for the experiments was obtained from Stockholms […] […] The water/methanol mixture was analyzed using liquid chromatography-mass spectrometry (LC-MS)/MS as described below for fish. […] All analytes were quantified against the BEHP internal standard, as it gave better reproducibility. […]
Consider the following molecules; for each one, report its BCF (kinetic).

Completed entries (count: 5):
1. CCCCCCCCCCCCCCCCS(=O)(=O)O [C16SO3, hexadecylsulfonate] = 1370 (1070–2200) L kg^–1 ww
2. CCCCCCCCCCc1ccc(S(=O)(=O)O)cc1 = 16.3 (14.6–18.2) L kg^–1 ww
3. CCCCC(CC)COC(=O)CC(C(=O)OCC(CC)CCCC)S(=O)(=O)O (centres unmarked) [DOSS, bis(2-ethylhexyl)sulfosuccinate] = 1.42 (1.22–1.66) L kg^–1 ww
4. CCCCCCCCCCCCOCCOCCOCCOCCOS(=O)(=O)O [C12-EO4-SO4, dodecyltetraethoxysulfate] = 0.89 (0.80–1.01) L kg^–1 ww
5. CCCCCCCCCCCOS(=O)(=O)O [C11SO4, undecylsulfate] = 0.77 (0.68–0.87) L kg^–1 ww

Each of the following entries comes with a recorded value; kindly state BCF (kinetic) for each.
1. CCCCCCCCCCCCCS(=O)(=O)O [C13SO3, tridecylsulfonate]
2. CCCCCCCCCCCCCOS(=O)(=O)O [C13SO4, tridecylsulfate]
3. CCCCCCCCCCCCCCS(=O)(=O)O [C14SO3, tetradecylsulfonate]

4.5 (4.1–5.0) L kg^–1 ww
34 (29–40) L kg^–1 ww
30 (26–33) L kg^–1 ww

* * *

experiment: In vivo bioconcentration experiment with a mixture of anionic surfactants, flow-through aquaria, 10 °C, pH 7.8; parameters: species or system rainbow trout; conditions: rainbow trout, whole fish homogenate, other: waterborne exposure in flow-through aquaria, 26 μg L^–1, pH 7.8, elimination phase, 103 h; individual fish
REPORTED_METRIC: concentration at 103 h (ng/g)
Answers are plain numbers, in ng/g.

Sample CCCCC(CC)COC(=O)CC(C(=O)OCC(CC)CCCC)S(=O)(=O)O (stereo not shown) [DOSS, bis(2-ethylhexyl)sulfosuccinate] — what was its concentration at 103 h?
35

* * *

assay: Baseline screening BCF (0.0125 DMLW, equilibrium partitioning, no biotransformation); details: determined as 0.0125 DMLW
REPORTED_METRIC: Log baseline BCF (L kg-1 ww)
Give bare numbers, in L kg-1 ww.

Completed entries (count: 4):
1) CCCCCCCCCCS(=O)(=O)O [C10SO3, decylsulfonate] = 1.11
2) CCCCCCCCCCCCCS(=O)(=O)O [C13SO3, tridecylsulfonate] = 2.56
3) CCCCCCCCCCc1ccc(S(=O)(=O)O)cc1 = 3.20
4) CCCCCCCCCCCCOCCOCCOCCOCCOS(=O)(=O)O [C12-EO4-SO4, dodecyltetraethoxysulfate] = 2.34

Let us move to another entry and its Log baseline BCF.
Sample CCCCCCCCCCCCCOS(=O)(=O)O [C13SO4, tridecylsulfate] — what was its Log baseline BCF?
3.31
